meta.source: paper doi:10.1101/2023.03.24.534094v2

experimental system: EpHB1 (Homo sapiens)
Sequence (P54762 18-984): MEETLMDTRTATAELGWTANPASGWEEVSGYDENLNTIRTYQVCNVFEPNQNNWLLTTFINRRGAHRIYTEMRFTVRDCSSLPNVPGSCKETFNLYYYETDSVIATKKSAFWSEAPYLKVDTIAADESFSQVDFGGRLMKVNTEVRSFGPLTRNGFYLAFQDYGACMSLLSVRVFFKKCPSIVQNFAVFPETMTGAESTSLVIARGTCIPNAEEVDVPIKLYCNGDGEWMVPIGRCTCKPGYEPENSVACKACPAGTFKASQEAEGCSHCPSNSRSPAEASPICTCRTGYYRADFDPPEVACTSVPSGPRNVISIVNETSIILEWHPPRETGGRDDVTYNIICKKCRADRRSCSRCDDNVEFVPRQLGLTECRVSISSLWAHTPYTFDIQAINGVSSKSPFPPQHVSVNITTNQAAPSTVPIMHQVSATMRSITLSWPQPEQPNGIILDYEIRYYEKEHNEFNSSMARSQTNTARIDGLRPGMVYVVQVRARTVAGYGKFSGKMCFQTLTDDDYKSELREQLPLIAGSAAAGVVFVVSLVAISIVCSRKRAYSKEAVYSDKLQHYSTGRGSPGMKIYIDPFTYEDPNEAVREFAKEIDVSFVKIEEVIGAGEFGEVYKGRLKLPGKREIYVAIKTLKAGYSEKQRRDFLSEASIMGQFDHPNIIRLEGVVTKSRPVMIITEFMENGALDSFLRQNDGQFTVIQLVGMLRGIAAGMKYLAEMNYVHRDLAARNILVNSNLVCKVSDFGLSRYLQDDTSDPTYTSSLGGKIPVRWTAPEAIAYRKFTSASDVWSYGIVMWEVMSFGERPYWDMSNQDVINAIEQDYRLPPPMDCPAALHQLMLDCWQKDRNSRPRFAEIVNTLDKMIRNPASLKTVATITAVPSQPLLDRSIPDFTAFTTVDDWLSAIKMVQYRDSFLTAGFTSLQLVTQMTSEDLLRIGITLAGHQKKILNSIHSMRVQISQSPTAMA
assay summary: NanoBRET target engagement
Format: cell-based
condition context: intact mode, HEK293T, 37 °C, 2 h, tracer displacement
result type: IC50

Output measured IC50 for this item: CNc1ncc2cc(-c3cc(F)ccc3F)c(=O)n(CCCCN)c2n1 [compound 5]
632 nM

----------
experimental system: MST4 (Homo sapiens, UniProt Q9P289)
Sequence (Q9P289 whole entry): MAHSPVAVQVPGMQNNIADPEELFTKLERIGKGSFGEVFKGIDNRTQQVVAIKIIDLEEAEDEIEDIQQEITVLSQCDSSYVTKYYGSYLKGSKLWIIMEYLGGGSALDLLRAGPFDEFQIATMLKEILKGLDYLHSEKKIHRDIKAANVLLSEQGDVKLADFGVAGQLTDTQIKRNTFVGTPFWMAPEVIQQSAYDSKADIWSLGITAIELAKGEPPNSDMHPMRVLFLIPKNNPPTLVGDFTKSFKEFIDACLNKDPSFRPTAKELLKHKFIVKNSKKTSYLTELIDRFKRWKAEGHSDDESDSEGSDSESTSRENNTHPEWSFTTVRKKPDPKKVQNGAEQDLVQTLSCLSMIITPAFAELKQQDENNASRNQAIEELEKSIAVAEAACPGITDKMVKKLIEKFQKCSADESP
assay summary: biochemical
condition context: read-out: dTm MST4
This listing pairs compounds with measured ΔTm at 10 µM.
Numbers only here, please. The scale is °C.

{"columns": ["compound structure", "ΔTm at 10 µM [°C]"],
 "data": [
  ["CNc1ncc2cc(-c3cc(Br)ccc3Cl)c(=O)n(C[C@H]3OC[C@H](N)CO3)c2n1", 0.6],
  ["CNc1ncc2cc(-c3cc(Cl)ccc3Br)c(=O)n(CCCCN)c2n1", 1.8],
  ["CNc1ncc2cc(-c3cc(Br)ccc3Br)c(=O)n(CCCCN)c2n1", 1.5],
  ["CNc1ncc2cc(-c3cc(F)ccc3F)c(=O)n(CCCCN)c2n1", 0.9],
  ["CNc1ncc2cc(-c3cc(Cl)ccc3Cl)c(=O)n(CCCCN)c2n1", 2],
  ["CNc1ncc2cc(-c3cc(Br)ccc3Cl)c(=O)n(CCCCN)c2n1", 2.2],
  ["CNc1ncc2cc(-c3cc(F)c(-c4cccc(C)n4)cc3F)c(=O)n(CCCCN)c2n1", 7.6],
  ["CNc1ncc2cc(-c3cc(C(F)(F)F)ccc3Cl)c(=O)n(CCCCN)c2n1", 0.4]
]}

Here's the next entry for you.
GET ΔTm at 10 µM | system: MST4 (Homo sapiens, UniProt Q9P289) | item: CNc1ncc2cc(-c3ccccc3Cl)c(=O)n(CCCCN)c2n1
2.6
